Molecular target: DNA polymerase III PolC-type (Bacillus subtilis (strain 168), UniProt P13267)
Assay: Inhibition against Bacillus subtilis DNA polymerase III (wild type)
pKi values for the molecules below.
The scale used: pKi is minus the common logarithm of the concentration in molar units.

Check out these entries, answers already filled in.
INSERT INTO assay_data (query_smiles, quantity_measured, reported_value) VALUES
  ('Oc1cc(Nc2ccc3c(c2)CCC3)nc(O)n1', 'pKi', 6.38),
  ('Cc1cccc(Nc2cc(=O)[nH]c(=O)[nH]2)c1C', 'pKi', 3.65),
  ('O=c1cc(Nc2cccc(CCl)c2)[nH]c(=O)[nH]1', 'pKi', 5.12),
  ('Cc1ccc(Nc2cc(O)nc(O)n2)cc1Cl', 'pKi', 6.20),
  ('O=c1cc(Nc2cccc3ccccc23)[nH]c(=O)[nH]1', 'pKi', 4.08),
  ('Nc1ccc(Nc2cc(=O)[nH]c(=O)[nH]2)cc1', 'pKi', 3.19);

Q) Name the recorded pKi of the item CCCc1ccc(Nc2cc(=O)[nH]c(=O)[nH]2)cc1 in your answer.
A) 3.34

Q) Name the recorded pKi of the item Cc1ccc(C)c(Nc2cc(O)nc(O)n2)c1 in your answer.
A) 2.87

Q) Name the recorded pKi of the item Cc1cc(Nc2cc(=O)[nH]c(=O)[nH]2)ccc1N in your answer.
A) 4.72

Q) Name the recorded pKi of the item CCCCCCNc1cc(=O)[nH]c(=O)[nH]1 in your answer.
A) 3.43

Q) Name the recorded pKi of the item Cc1ccc(Nc2cc(O)nc(O)n2)cc1CCl in your answer.
A) 6.59

Q) Name the recorded pKi of the item Cc1ccc(Nc2cc(=O)[nH]c(=O)[nH]2)cc1N in your answer.
A) 3.91

Q) Name the recorded pKi of the item COc1ccc(Nc2cc(O)nc(O)n2)cc1 in your answer.
A) 3.92

---

Target: DNA polymerase III PolC-type (Bacillus subtilis (strain 168)) (UniProt P13267)
Sequence (P13267 whole entry): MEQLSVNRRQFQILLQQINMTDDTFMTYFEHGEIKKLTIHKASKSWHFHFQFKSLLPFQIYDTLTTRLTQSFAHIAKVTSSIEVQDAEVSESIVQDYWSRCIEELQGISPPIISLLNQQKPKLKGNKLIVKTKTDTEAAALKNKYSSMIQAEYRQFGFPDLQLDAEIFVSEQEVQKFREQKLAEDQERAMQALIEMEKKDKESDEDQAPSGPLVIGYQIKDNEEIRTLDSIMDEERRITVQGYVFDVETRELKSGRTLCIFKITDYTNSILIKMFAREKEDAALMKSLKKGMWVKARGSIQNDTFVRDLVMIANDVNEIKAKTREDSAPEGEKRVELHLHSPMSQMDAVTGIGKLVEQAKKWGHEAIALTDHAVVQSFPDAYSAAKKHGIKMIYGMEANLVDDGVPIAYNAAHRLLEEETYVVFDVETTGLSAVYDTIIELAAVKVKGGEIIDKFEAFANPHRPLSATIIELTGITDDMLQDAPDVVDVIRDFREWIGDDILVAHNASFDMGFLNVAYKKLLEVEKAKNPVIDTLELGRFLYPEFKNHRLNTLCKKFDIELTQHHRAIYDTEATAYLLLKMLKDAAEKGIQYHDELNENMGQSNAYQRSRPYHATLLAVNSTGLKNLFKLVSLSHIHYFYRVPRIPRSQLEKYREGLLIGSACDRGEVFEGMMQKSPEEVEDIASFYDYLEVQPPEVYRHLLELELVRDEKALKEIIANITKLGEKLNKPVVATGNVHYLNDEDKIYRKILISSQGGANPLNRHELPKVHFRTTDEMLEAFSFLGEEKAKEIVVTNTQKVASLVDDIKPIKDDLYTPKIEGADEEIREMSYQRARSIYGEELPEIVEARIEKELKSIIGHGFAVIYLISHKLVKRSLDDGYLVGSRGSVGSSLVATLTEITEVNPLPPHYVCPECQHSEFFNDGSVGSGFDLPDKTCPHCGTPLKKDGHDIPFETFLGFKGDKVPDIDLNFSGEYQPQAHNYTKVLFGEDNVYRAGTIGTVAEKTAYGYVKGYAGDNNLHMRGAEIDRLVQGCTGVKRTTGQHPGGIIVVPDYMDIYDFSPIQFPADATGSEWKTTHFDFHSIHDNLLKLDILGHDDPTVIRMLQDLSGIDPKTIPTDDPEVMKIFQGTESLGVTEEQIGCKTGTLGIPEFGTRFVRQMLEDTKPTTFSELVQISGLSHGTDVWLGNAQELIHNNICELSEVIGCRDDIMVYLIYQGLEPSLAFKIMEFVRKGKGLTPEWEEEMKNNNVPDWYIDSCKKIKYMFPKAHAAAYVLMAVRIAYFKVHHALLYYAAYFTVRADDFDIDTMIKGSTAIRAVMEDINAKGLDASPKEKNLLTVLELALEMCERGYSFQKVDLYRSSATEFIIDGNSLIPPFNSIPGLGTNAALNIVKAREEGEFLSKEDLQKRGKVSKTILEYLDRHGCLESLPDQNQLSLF
Assay: Degree of resistance is the ratio between inhibition of Bacillus subtilis DNA Polymerase III azp-12 and WT.
Quick rule: Degree of resistance of at least 1 means label 1, below that means label 0.

Take a look at these entries with their results.
INSERT INTO measurements (query_smiles, system, qualitative_label) VALUES
  ('CCc1ccc(Nc2cc(O)nc(O)n2)cc1', 'DNA polymerase III PolC-type (Bacillus subtilis (strain 168)) (UniProt P13267)', 'label 0'),
  ('Oc1cc(Nc2cccc(Br)c2)nc(O)n1', 'DNA polymerase III PolC-type (Bacillus subtilis (strain 168)) (UniProt P13267)', 'label 1'),
  ('Cc1cccc(Nc2cc(O)nc(O)n2)c1', 'DNA polymerase III PolC-type (Bacillus subtilis (strain 168)) (UniProt P13267)', 'label 1'),
  ('CCCCc1ccc(Nc2cc(O)nc(O)n2)cc1', 'DNA polymerase III PolC-type (Bacillus subtilis (strain 168)) (UniProt P13267)', 'label 0'),
  ('Oc1cc(Nc2ccc(Br)cc2)nc(O)n1', 'DNA polymerase III PolC-type (Bacillus subtilis (strain 168)) (UniProt P13267)', 'label 0');

# ---- query compound ----
Q) Reported Degree of resistance at or above 1? Cc1ccc(Nc2cc(O)nc(O)n2)cc1
A) label 1

Reference source: ChEMBL document CHEMBL1121521
